Value source: PubChem BioAssay (NCI)

Test system: MDA-MB-435
Experiment: NCI tumour cell line growth inhibition, 48 h
readout label: TGI

Check the records and state TGI for CCCC[n+]1c(/C=C\c2c(OC)cc(OC)cc2OC)ccc2ccccc21
1.87 µM

Check the records and state TGI for Cc1cc(C)c2c(c1)C1=NCCN1C2(O)c1ccc(Cl)cc1 (stereo not drawn)
32.5 µM

Check the records and state TGI for COC(=O)C(C(=O)C(=O)Nc1ccccc1C#N)c1nc2ccc([N+](=O)[O-])cc2[nH]c1=O (stereo not drawn)
> 100 µM

Check the records and state TGI for CN(C)CC1CCC/C(=C\c2ccc(OC(=O)/C=C/c3ccccc3)cc2)C1=O (stereo not drawn)
7.37 µM

Check the records and state TGI for Cn1cc(S(=O)(=O)NC(=O)Nc2ccc(Cl)cc2)c2ccccc21
> 100 µM

Check the records and state TGI for O=c1oc2ccccc2c(O)c1/C=N/C(=S)NCc1ccccc1
> 100 µM

Check the records and state TGI for COC(=O)C(Cc1ccccc1)NP(=O)(O)OCC1OC(n2cc(I)c(=O)[nH]c2=O)CC1O (stereo not drawn)
> 100 µM

Check the records and state TGI for c1cc2nnc1SCCCSc1ccc(nn1)SCCCSc1ccc(nn1)SCCCS2
> 100 µM

Check the records and state TGI for c1ccc(CN2CCC3(CC2)SSC2(CCN(Cc4ccccc4)CC2)SS3)cc1
> 100 µM

Check the records and state TGI for C[n+]1c2ccccc2n2c3ccccc3c(NCCc3ccccn3)c(C#N)c21
4 µM

Check the records and state TGI for Cc1nc2c(cc1C(=O)N/N=C/c1ccc([N+](=O)[O-])cc1)c(=O)n(C)c(=O)n2C
> 100 µM

Check the records and state TGI for CC(=O)C=NCC(=O)O
> 100 µM

Check the records and state TGI for O=C1C=CC(=Nc2ccccc2)c2ccccc21
3.42 µM
